Data credit: ChEMBL document CHEMBL5537159

# assayComment: AUCinfinity in C57BL/6J mouse at 3 mg/kg, po administered as single dose and measured after 24 hrs
# Assay type: ADME, organism-based
# reportedConditions: in vivo
readoutName: AUC(0-inf) (µM·h)
Numbers only, in µM·h.

GET /value?item= Cc1ccc(NC(=O)C[C@H](CCC(=O)O)c2noc([C@H]3C[C@@H](CC(C)(C)C)C3)c2C2CC2)c(Cl)c1 &field=AUC(0-inf) returns 173

---

For each entry below, report its Papp at 2 h, 25 µM value.
# assayComment: Apparent permeability in human Caco-2 cells at 25 umol/L incubated for 2 hrs by LC/MS/MS analysis
# Format: ADME, cell-based
# reportedConditions: dose 25 µmol/L

Observe how each entry below is paired with its result.
> print(dat)
                                   compound         observed
1  Cc1ccc(NC(=O)C[C@H](CC(=O)O)c2noc([C@H]3C[C@@H](CCC(C)(C)C)C3)c2C2CC2)c(C)c1  22.8 ×10⁻⁶ cm/s
2  Cc1ccc(NC(=O)C[C@H](CCC(=O)O)c2noc([C@H]3C[C@@H](CC(C)C)C3)c2C2CC2)c(C)c1  31.4 ×10⁻⁶ cm/s
3  CC(C)C[C@H]1C[C@@H](c2onc([C@@H](CC(=O)O)CC(=O)Nc3ccc(F)cc3Cl)c2C2CC2)C1  33.5 ×10⁻⁶ cm/s

Kindly give each listed record's Papp at 2 h, 25 µM.
1. CCC(C)(C)C[C@H]1C[C@@H](c2onc([C@@H](CC(=O)O)CC(=O)Nc3ccc(C)cc3C)c2C2CC2)C1
2. Cc1ccc(NC(=O)C[C@H](CC(=O)O)c2noc([C@H]3C[C@@H](CC(C)C)C3)c2C(C)C)c(C)c1
3. Cc1cccc(NC(=O)C[C@H](CC(=O)O)c2noc([C@H]3C[C@@H](CC(C)C)C3)c2C2CC2)c1C
4. Cc1ccc(NC(=O)C[C@H](Cc2ccc(C(=O)O)cc2)c2noc([C@H]3C[C@@H](CC(C)C)C3)c2C2CC2)c(C)c1 (mixture of isomers)
5. Cc1ccc(NC(=O)CC(CC(=O)N(C)C)c2nnc([C@H]3C[C@@H](CC(C)C)C3)n2C2CC2)c(C)c1 (mixture of isomers)

a:
1: 22.5 ×10⁻⁶ cm/s; 2: 23.3 ×10⁻⁶ cm/s; 3: 35.5 ×10⁻⁶ cm/s; 4: 14.3 ×10⁻⁶ cm/s; 5: 18.3 ×10⁻⁶ cm/s
